experiment: NCI Yeast Anticancer Drug Screen. Data for the rad50EPP+ strain (AID 151);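 further: 0% = growth of vehicle-treated control cultures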; conditions: S. cerevisiae rad50 mutant strain, at 11.0 µM, hits give high values
This is part of a sample that, as a whole, favours compounds with a hit. Of some 79,000 tested, about 15% had one in any assay.
compounds and their reported growth inhibition
Field: numeric (%). Do not append units.

Observe how each entry below is paired with its result.
>>> print(df.to_string())
                            compound            measure  endpoint_result
0          O=C1C=C(Br)C(=O)c2ccccc21  growth inhibition               95
1                     O=Cc1ccccc1C=O  growth inhibition               -2
2  O=C1Nc2ccc(Br)cc2C1=Nc1ccc(Cl)cc1  growth inhibition               -8

Query O=C(O)c1ccccc1C(=O)OC1CCc2ccccc2C1 (stereo unspecified) yields growth inhibition of -1

Query COC1=CCC23C(=O)C=CC(=O)C2(C1)C(=O)c1ccccc1C3=O (stereo unspecified) yields growth inhibition of 25

Query `CC(C)S(=O)(=O)/C=C\S(=O)(=O)C(C)C` yields growth inhibition of 5

Query `Oc1ccc(C2(c3ccc(O)cc3)CCCC2)cc1` yields growth inhibition of -44

----------
experiment: NCI Yeast Anticancer Drug Screen. Data for the rad50 strain (AID 155);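 further: 0% = growth of vehicle-only cultures of the same strain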; conditions: S. cerevisiae rad50 strain growth inhibition; at 1.2 µM; hits give high values
This is part of a sample that, as a whole, favours compounds with a hit. Of some 79,000 tested, about 15% had one in any assay.
Measure: growth inhibition (%)
Field: numeric (%). Do not append units.

Observe how each entry below is paired with its result.
In [3]: df
Out[3]:
                                   compound  endpoint_result
0  O=C(CCCN1CCC(Nc2ccc(F)cc2)(c2nnnn2C2CCCCC2)CC1)c1ccc(F)cc1               -5
1  COc1ccc2nc3cccc([N+](=O)[O-])c3c(NCCCCCC(=O)O)c2c1               84
2  O=C(NNc1ccccc1)C(CCCCNS(=O)(=O)Cc1ccccc1)NS(=O)(=O)Cc1ccccc1 (centres undefined)                5

Query `CCCNCC(=O)O[C@]1(CC)C(=O)OCc2c1cc1n(c2=O)Cc2cc3ccccc3nc2-1` yields growth inhibition of 83

----------
test: NCI Yeast Anticancer Drug Screen. Data for the mgt1 strain (AID 153); settings: S. cerevisiae mgt1 mutant growth inhibition; at 3.7 µM; hits give high values
This is part of a sample that, as a whole, favours compounds with a hit. Of some 79,000 tested, about 15% had one in any assay.
Measure: growth inhibition (%)
Field: numeric (%). Do not append units.

Observe how each entry below is paired with its result.
>>> df
                                   compound            measure  endpoint_result
0                CCC(=O)Nc1ccc(N=NN(C)C)cc1  growth inhibition               -9
1                             NCCCSc1ccccc1  growth inhibition               -4
2  CC1=NN(C(=O)c2ccccc2O)C(=O)/C1=C/c1ccco1  growth inhibition               27

Query `O=C(Cc1ccccc1)NNc1nc(NNC(=O)c2ccncc2)nc(Nc2ccc([N+](=O)[O-])cc2)n1` yields growth inhibition of 13

Query `O=C1c2ccccc2C(=O)c2c(O)c(NCCNCCO)cc(O)c21` yields growth inhibition of 4

Query `CCCCCCCCNCCCCCCCC` yields growth inhibition of 29

Query `CCN(CC)CCC(=O)Nc1ccc2sc3ccccc3c(=O)c2n1` yields growth inhibition of -4

Query COC(=O)C(Cc1c[nH]c2ccccc12)N1CN(C)c2ccccc2C1=O (stereo not given) yields growth inhibition of -1

Query `CC(C)OP(=O)(OC(C)C)/C(Cl)=N/Nc1ccc([N+](=O)[O-])cc1` yields growth inhibition of -29

Query CCC(C)COC(=O)Nc1cccc(Cl)c1 (stereo not given) yields growth inhibition of 0

Query `CC(=O)O/N=C1C=C/C(=C(/C#N)c2ccccc2)C=C/1C` yields growth inhibition of 6

Query `O=C1c2cccc3cccc(c23)C(=O)N1CCNCCN1C(=O)c2cccc3cccc(c23)C1=O` yields growth inhibition of 0

Query `O=[N+]([O-])c1ccc2nc(=S)[nH]n2c1` yields growth inhibition of -4

Query `COc1cc2oc3ccccc3c(=O)c2cc1CSc1ccccc1N` yields growth inhibition of 0

Query `CCCCCCCCSC1=C(Cl)C(=O)C(OC)=C(OC)C1=O` yields growth inhibition of -41

Query O=C1c2ccccc2N2OC3(N4CCCC4)CCCCC3C12c1ccccc1 (stereo not given) yields growth inhibition of -7

Query `O=C(O)/C=C\C(=O)Nc1ccc2c(c1)Cc1cc(Cl)ccc1-2` yields growth inhibition of -5

Query `CC1(C)CC(=O)C(C=NC(=S)C(N)=S)=C(O)C1` yields growth inhibition of 0
